# TARGET_DESC: T1, PD-L1 recombinant protein (human, UniProt Q9NZQ7 19-238, limits assumed)
# T1 construct: also called PD-L1 antigen
# METHOD_SUMMARY: ForteBio Octet RED96, PD-L1 immobilised, antibody in solution
Each record here notes measured kon.
MEASURE: kon

- PL230C6 Fc-scFv (Fc fusion, scFv at the C-terminus of an Fc; The Fc part is not specified; also called PL23006; not shown: The Fc part and the linker joining it to the scFv) scFv: QSVEESGGGLVQPGGSLRLSCTASGIDLNTYDMIWVRQAPGKGLEWVGIITYSGSRYYANWAKGRFTISKDNTKNTVYLQMNSLRAEDTAVYYCARDYMSGSHLWGQGTLVTVSSGGGGSGGGGSGGGGSGGGGSAYDMTQSPSSVSASVGDRVTIKCQASEDIYSFLAWYQQKPGKAPKLLIHSASSLASGVPSRFSGSGSGTDFTLTISSLQPEDFATYYCQQGYGKNNVDNAFGGGTKVEIK: 418000 M⁻¹ s⁻¹
- PL221G5 Fc-scFv (Fc fusion, scFv at the C-terminus of an Fc; The Fc part is not specified; not shown: The Fc part and the linker joining it to the scFv) scFv: EVQLLESGGGLVQPGGSLRLSCAASGFSFSSGYDMCWVRQAPGKGLEWIACIAAGSAGITYDANWAKGRFTISRDNSKNTLYLQMNSLRAEDTAVYYCARSAFSFDYAMDLWGQGTLVTVSSGGGGSGGGGSGGGGSGGGGSDIQMTQSPSTLSASVGDRVTITCQASQSISSHLNWYQQKPGKAPKLLIYKASTLASGVPSRFSGSGSGTEFTLTISSLQPDDFATYYCQQGYSWGNVDNVFGGGTKVEIK: 414000 M⁻¹ s⁻¹
- PL004B9 Fc-scFv (Fc fusion, not shown: a dimerising Fc or GST; small tags and cut ends, scFv at the C-terminus of an Fc) scFv: EVQLVESGGGLVQPGGSLRLSCTVSGIDLSVINMGWVRQAPGKGLEWIGTITYVGNTYYASWAKGRFTISKTSTTVDLKITSPTTEDTAVYYCARESGTIYYSYFNLWGQGTLVTVSSGGGGSGGGGSGGGGSGGGGSAFELTQSPSSLSASVGDRVTIKCQASESISNYLSWYQQIPGKVPKLLIYYASNLASGVPSRFSGSGSGTDFTLTISSLQPEDVATYYCQSYYGGGSAYTFGGGTKVEIK: 307000 M⁻¹ s⁻¹
- PL004B9 mAb (antibody, V domains shown, Anti-PD-L1 clone tested in mAb format) VH: EVQLVESGGGLVQPGGSLRLSCTVSGIDLSVINMGWVRQAPGKGLEWIGTITYVGNTYYASWAKGRFTISKTSTTVDLKITSPTTEDTAVYYCARESGTIYYSYFNLWGQGTLVTVSS VL: AFELTQSPSSLSASVGDRVTIKCQASESISNYLSWYQQIPGKVPKLLIYYASNLASGVPSRFSGSGSGTDFTLTISSLQPEDVATYYCQSYYGGGSAYTFGGGTKVEIK: 508000 M⁻¹ s⁻¹
